Study system: Short transient receptor potential channel 4 (Mus musculus)
Assay notes: inhibitors of mouse TRPC4 channel, confirmation, cell-based, Fluo4, HEK293 TRPC4beta/mu-opioid (AID 2636)
Experimental parameters: DAMGO, Fluo4 calcium flux, at 10 µM
Activity calls are given as the source filed them.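 How the source made its calls: active means calcium signal cut by more than 3 SD below the full-agonist control yet still positive, in both repeats and the earlier primary screen; inactive means the rest.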
Possible outcomes: active, inactive

[
  {
    "Molecule": "C=CCn1c(CCNC(=O)C(C)(C)C)nc2ccccc21",
    "Assigned category": "inactive"
  },
  {
    "Molecule": "CN(C)C(CNC(=O)c1ccc2c(c1)S(=O)(=O)c1ccccc1C2=O)c1ccco1 (stereo not given)",
    "Assigned category": "active"
  },
  {
    "Molecule": "Cc1cc(OCCCn2ccnc2)cc(C)c1Cl",
    "Assigned category": "inactive"
  },
  {
    "Molecule": "CCn1cc(CN2CCCC(C(=O)Nc3ccc(-c4nc5ccccc5[nH]4)cc3)C2)c(C)n1 (stereo not given)",
    "Assigned category": "inactive"
  },
  {
    "Molecule": "Cc1ccccc1C(=O)NNC(=S)NC(=O)c1ccccc1",
    "Assigned category": "inactive"
  }
]

----------
Study system: Short transient receptor potential channel 6 (Mus musculus)
Assay notes: activation of mouse TRPC6 channel, confirmation, selectivity assay for TRPC4 activator project, cell-based, HEK293, membrane potential dye, duplicate (AID 434950);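 on activation: 0% = buffer only wells and 100% = acetylcholine maximal-effect wells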
Experimental parameters: HEK293 TRPC6, membrane potential fluorescence, at 10 µM
Activity calls are given as the source filed them.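 Rule for the calls: active = membrane potential signal rise above negative control mean plus 3 SD in both duplicates, also active in the earlier TRPC4 screen; inactive = the rest.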
Outcome codes: 1 (yes) (active), 0 (no) (inactive)

[
  {
    "Compound": "CC(C)(C)C(=O)NC(=S)NNC(=O)C(c1ccccc1)c1ccccc1",
    "Study system": "Short transient receptor potential channel 6 (Mus musculus)",
    "Assigned category": "1 (yes)"
  },
  {
    "Compound": "CCN1CCN(c2ccc(S(=O)(=O)N3CCOCC3)cc2NC(=O)C(C)Oc2cccc(Cl)c2)CC1 (configuration not stated)",
    "Study system": "Short transient receptor potential channel 6 (Mus musculus)",
    "Assigned category": "1 (yes)"
  },
  {
    "Compound": "Cc1ccc(/C=N\\NC(=O)C2COc3cc4ccccc4cc3O2)o1 (configuration not stated)",
    "Study system": "Short transient receptor potential channel 6 (Mus musculus)",
    "Assigned category": "1 (yes)"
  },
  {
    "Compound": "CCCCC(c1nnnn1CC1CCCO1)N1CCN(Cc2ccccc2)CC1 (configuration not stated)",
    "Study system": "Short transient receptor potential channel 6 (Mus musculus)",
    "Assigned category": "1 (yes)"
  },
  {
    "Compound": "COc1ccc(C(=O)NC(=S)NNC(=O)c2c(-c3ccccc3)noc2C)cc1",
    "Study system": "Short transient receptor potential channel 6 (Mus musculus)",
    "Assigned category": "1 (yes)"
  },
  {
    "Compound": "COc1cccc(-c2nn(-c3ccccc3)cc2CN(C)C(C)c2ccncn2)c1 (configuration not stated)",
    "Study system": "Short transient receptor potential channel 6 (Mus musculus)",
    "Assigned category": "1 (yes)"
  },
  {
    "Compound": "O=S(=O)(c1ccccc1)c1nnn2c1nc(NC1CCN(Cc3ccccc3)CC1)c1cc(Cl)ccc12",
    "Study system": "Short transient receptor potential channel 6 (Mus musculus)",
    "Assigned category": "0 (no)"
  },
  {
    "Compound": "Cc1cc(NCc2ccccc2)nc2ccccc12",
    "Study system": "Short transient receptor potential channel 6 (Mus musculus)",
    "Assigned category": "0 (no)"
  },
  {
    "Compound": "Cc1ccc(C)c(S(=O)(=O)N2CCN(C(=O)CCc3nc4ccccc4c(=O)[nH]3)CC2)c1",
    "Study system": "Short transient receptor potential channel 6 (Mus musculus)",
    "Assigned category": "1 (yes)"
  },
  {
    "Compound": "CCOC(=O)C1(CCOc2ccccc2)CCN(Cc2ccc3c(c2)OCCO3)CC1",
    "Study system": "Short transient receptor potential channel 6 (Mus musculus)",
    "Assigned category": "1 (yes)"
  },
  {
    "Compound": "CCC1(c2ccc(F)cc2)NC(=O)N(CC(=O)c2cc(C)n(C3CC3)c2C)C1=O (configuration not stated)",
    "Study system": "Short transient receptor potential channel 6 (Mus musculus)",
    "Assigned category": "0 (no)"
  },
  {
    "Compound": "Cc1csc2c(N3CCN(C(=O)NC(C)(C)C)CC3)ncnc12",
    "Study system": "Short transient receptor potential channel 6 (Mus musculus)",
    "Assigned category": "0 (no)"
  },
  {
    "Compound": "O=C(NCCc1ccccn1)c1ccc(OC2CCN(CCc3ccccc3)CC2)cc1",
    "Study system": "Short transient receptor potential channel 6 (Mus musculus)",
    "Assigned category": "1 (yes)"
  },
  {
    "Compound": "Cc1c(C(=O)N(Cc2cccs2)C2CCS(=O)(=O)C2)oc2ccccc12 (configuration not stated)",
    "Study system": "Short transient receptor potential channel 6 (Mus musculus)",
    "Assigned category": "1 (yes)"
  },
  {
    "Compound": "CN(CCOc1ccc(Cl)cc1)CC(O)c1ccccc1 (configuration not stated)",
    "Study system": "Short transient receptor potential channel 6 (Mus musculus)",
    "Assigned category": "1 (yes)"
  },
  {
    "Compound": "CN(C)C(CNC(=O)Cc1cccc(C(F)(F)F)c1)c1ccccc1 (configuration not stated)",
    "Study system": "Short transient receptor potential channel 6 (Mus musculus)",
    "Assigned category": "1 (yes)"
  },
  {
    "Compound": "CCOc1ccccc1OCC(=O)Nc1cc(S(=O)(=O)N2CCCCC2)ccc1N1CCN(CC)CC1",
    "Study system": "Short transient receptor potential channel 6 (Mus musculus)",
    "Assigned category": "0 (no)"
  },
  {
    "Compound": "C/C=C(\\C)CN1CCC(n2nccc2NC(=O)CCc2ccccc2)CC1",
    "Study system": "Short transient receptor potential channel 6 (Mus musculus)",
    "Assigned category": "1 (yes)"
  },
  {
    "Compound": "O=C(NNC(=S)NC(=O)C12CC3CC(CC(C3)C1)C2)c1ccncc1",
    "Study system": "Short transient receptor potential channel 6 (Mus musculus)",
    "Assigned category": "0 (no)"
  },
  {
    "Compound": "CN(C)C(CNC(=O)c1cc2ccccc2oc1=O)c1ccccc1 (configuration not stated)",
    "Study system": "Short transient receptor potential channel 6 (Mus musculus)",
    "Assigned category": "0 (no)"
  },
  {
    "Compound": "Cn1c(-c2cccc3ccccc23)n[nH]c1=S",
    "Study system": "Short transient receptor potential channel 6 (Mus musculus)",
    "Assigned category": "0 (no)"
  },
  {
    "Compound": "CCCC(=O)N1CCc2cc(-c3nc(N)sc3C)ccc21",
    "Study system": "Short transient receptor potential channel 6 (Mus musculus)",
    "Assigned category": "0 (no)"
  },
  {
    "Compound": "Cc1ccc(C(=O)NC(=S)NNC(=O)c2ccccc2)cc1",
    "Study system": "Short transient receptor potential channel 6 (Mus musculus)",
    "Assigned category": "1 (yes)"
  },
  {
    "Compound": "CN(C)c1ccc(NC(=S)N2CCN(c3ncc(C(F)(F)F)cc3Cl)CC2)cc1",
    "Study system": "Short transient receptor potential channel 6 (Mus musculus)",
    "Assigned category": "1 (yes)"
  },
  {
    "Compound": "Cc1ccc(-n2cc(CNCCc3ncc(C)[nH]3)c(-c3ccc(F)cc3)n2)cc1",
    "Study system": "Short transient receptor potential channel 6 (Mus musculus)",
    "Assigned category": "0 (no)"
  },
  {
    "Compound": "O=C(O)c1ccc(-c2ccc(/C=c3/sc4nc5ccccc5n4c3=O)o2)cc1Cl",
    "Study system": "Short transient receptor potential channel 6 (Mus musculus)",
    "Assigned category": "1 (yes)"
  },
  {
    "Compound": "Cc1onc(-c2ccccc2)c1C(=O)NNC(=S)NC(=O)c1ccc(Cl)cc1Cl",
    "Study system": "Short transient receptor potential channel 6 (Mus musculus)",
    "Assigned category": "1 (yes)"
  },
  {
    "Compound": "CCN1CCN(c2c(Cl)cccc2NC(=O)c2ccc3nsnc3c2)CC1",
    "Study system": "Short transient receptor potential channel 6 (Mus musculus)",
    "Assigned category": "0 (no)"
  },
  {
    "Compound": "CCN1CCN(c2ccc(S(=O)(=O)N3CCCCC3)cc2NC(=O)COc2ccccc2)CC1",
    "Study system": "Short transient receptor potential channel 6 (Mus musculus)",
    "Assigned category": "0 (no)"
  },
  {
    "Compound": "O=C(CCC1CCCC1)c1c(O)c2ccccc2oc1=O",
    "Study system": "Short transient receptor potential channel 6 (Mus musculus)",
    "Assigned category": "1 (yes)"
  },
  {
    "Compound": "CCCCN(CC)CCCNC(=O)Cn1nc(Cc2ccncc2)c2ccccc2c1=O",
    "Study system": "Short transient receptor potential channel 6 (Mus musculus)",
    "Assigned category": "1 (yes)"
  },
  {
    "Compound": "C=CCn1c(CCNC(=O)C(C)(C)C)nc2ccccc21",
    "Study system": "Short transient receptor potential channel 6 (Mus musculus)",
    "Assigned category": "1 (yes)"
  },
  {
    "Compound": "CCN(CCCNS(=O)(=O)c1cc(-c2cc(C)no2)ccc1C)Cc1ccccc1",
    "Study system": "Short transient receptor potential channel 6 (Mus musculus)",
    "Assigned category": "1 (yes)"
  },
  {
    "Compound": "OCCN1CCN(Cc2cc(Br)cc(Br)c2O)CC1",
    "Study system": "Short transient receptor potential channel 6 (Mus musculus)",
    "Assigned category": "1 (yes)"
  },
  {
    "Compound": "CN(C)C(CNC(C(=O)Nc1ccc(F)cc1)c1ccccc1)c1ccccc1 (configuration not stated)",
    "Study system": "Short transient receptor potential channel 6 (Mus musculus)",
    "Assigned category": "0 (no)"
  },
  {
    "Compound": "Fc1ccc(C(c2nnnn2Cc2cccs2)N2CCN(C3CCCCC3)CC2)cc1 (configuration not stated)",
    "Study system": "Short transient receptor potential channel 6 (Mus musculus)",
    "Assigned category": "1 (yes)"
  },
  {
    "Compound": "CC1Cc2ccccc2N1C(=O)CSc1nc2c(c(=O)n(C)c(=O)n2C)n1Cc1ccccc1 (configuration not stated)",
    "Study system": "Short transient receptor potential channel 6 (Mus musculus)",
    "Assigned category": "1 (yes)"
  }
]
